Recorded GI50 values for a group of compounds are listed next.
# System: SN12C renal
# ASSAY_INFO: NCI tumour cell line growth inhibition, 48 h

The following compounds have reported results that may help.
>>> result("C=CCc1c(O)c(C(=O)/C=C/c2ccc(Cl)cc2)c(OC)c2ccoc12")
"4.96 µM"
>>> result("CCCCCCCCN(CCCCCCCC)CC(O)c1cc(-c2ccccc2)nc2ccc(OC)cc12 (centres undefined)")
"29.7 µM"
>>> result("CCN(CC)CCOc1nc2ccccc2c2c1-c1ccc(OC)cc1C2=O")
"0.502 µM"

Q: Write down measured GI50 (SN12C renal) for this compound. CC1=CC2(C)/C=C(C)/C=C\CC(O)/C=C3/C=CC(=C4C(=O)OC2(CC1C)C4=O)OC3 (centres undefined)
Result: 1.92 µM

Q: Write down measured GI50 (SN12C renal) for this compound. COC(=O)[C@]1(C)CCC[C@@]2(C)C3=C(CC[C@H]12)C[C@@H](CC(OC(C)=O)OC(C)=O)[C@@H](C)C3
Result: 9.42 µM

Q: Write down measured GI50 (SN12C renal) for this compound. CN1C(=O)N(C)C2C1NC(=S)N2/N=C/C=C/c1ccccc1[N+](=O)[O-] (centres undefined)
Result: 6.82 µM

Q: Write down measured GI50 (SN12C renal) for this compound. O=C(Nc1cccc([N+](=O)[O-])c1)c1cccc(C(=O)Nc2cccc([N+](=O)[O-])c2)c1
Result: 60.3 µM

Q: Write down measured GI50 (SN12C renal) for this compound. CC1=CC(C)=N/C(=N/S(=O)(=O)c2cc(C)c(Cl)cc2SCc2ccccc2)NN1
Result: > 100 µM

Q: Write down measured GI50 (SN12C renal) for this compound. Nc1nc(N)c2c(ccc3c2ccn3Cc2cccc([N+](=O)[O-])c2)n1
Result: 0.0615 µM

Q: Write down measured GI50 (SN12C renal) for this compound. COC(=O)Nc1nc2ccc(C(=O)c3cccc(I)c3)cc2[nH]1
Result: 0.125 µM

Q: Write down measured GI50 (SN12C renal) for this compound. CN1CCN(Cc2ccc(NC(=O)c3cncc(C#Cc4ccc(N)nc4)c3)cc2C(F)(F)F)CC1
Result: 1.11 µM

Q: Write down measured GI50 (SN12C renal) for this compound. Cc1cc(OCc2ccc(C(F)(F)F)cc2)c2c(c1)C(=O)C=C(NCCN1CCCC1)C2=O
Result: 9.86 µM

Q: Write down measured GI50 (SN12C renal) for this compound. COc1cc2c3c(n(C)c(=O)c2cc1OC)-c1cc2c(cc1/C3=C\CCCCl)OCO2
Result: > 100 µM

Q: Write down measured GI50 (SN12C renal) for this compound. N#C/C(=C\c1ccc[nH]1)c1cc(-c2ccc(Cl)cc2)nn1-c1ccccc1
Result: 5.87 µM
